Test system: Acinetobacter baumannii ATCC17961
Assay: Antimicrobial susceptibility testing: 90% growth inhibitory concentration (IC90) determination, Iso-Sensitest broth, OD 600 nm
Assay type: cell-based
Conditions: Acinetobacter baumannii, ATCC17961, 16 h, read-out: ATCC 17961 IC90
Structures can show the parent of a compound that is named as a salt.
Reported IC90 values are given for each entry in this list.

Compound: CCc1cc(Nc2nccn3c(-c4ccc(OC)c(F)c4F)cnc23)ccc1C(=O)NCCOCCN(C)CC(=O)NS(C)(=O)=O [Example 66, dihydrochloride]
IC90: 0.37 µM

Compound: CCc1cc(Nc2nccn3c(-c4ccc(OC)cc4C(F)(F)F)cnc23)ccc1C(=O)NCCOCCN [Example 56, hydrochloride]
IC90: 0.08 µM

Compound: CCc1cc(Nc2nccn3c(-c4ccc(OC)c(F)c4F)cnc23)ccc1C(=O)NCCOCC(C)(C)N
IC90: 0.04 µM

Compound: COc1ccc(-c2cnc3c(Nc4ccc(C(=O)NCCOCCN)c(C)c4F)nccn23)c(F)c1F [Example 61, dihydrochloride]
IC90: 0.14 µM
